Data credit: patent US20230072421A1

- Procedure summary: Biodistribution study in LNCaP tumor-bearing mice (Th227 counted in organs)
- Format: in vivo, SCID mice
- Condition label: 0.25 h; 1500 kBq/kg
Endpoint: Th-227 in salivary glands (% ID Th-227/g organ)
Please give a number only; it is taken to be in % ID Th-227/g organ.

Please review the entries below; each comes with its answer.
O=C([O-])CN1CCN(CC(=O)[O-])CCN(CC(=O)NCC2CCC(C(=O)NC(Cc3ccc4ccccc4c3)C(=O)NCCCCC(NC(=O)NC(CCC(=O)O)C(=O)O)C(=O)O)CC2)CCN(CC(=O)[O-])CC1.[227Th+4] [Example 1-B-D-227Th] ... 1.61
O=C([O-])CN1CCN(CC(=O)[O-])CCN(CC(=O)NCC2CCC(C(=O)NC(Cc3ccc4ccccc4c3)C(=O)NCCCCC(NC(=O)NC(CCC(=O)O)C(=O)O)C(=O)O)CC2)CCN(CC(=O)[O-])CC1.[227Th+4] (stereo not shown) [Example 1-B-227Th] ... 2.81
Cc1cc(C(=O)NCCN(CCCN(CCNC(=O)c2cc(C)n(CC(=O)O)c(=O)c2[O-])CCNC(=O)c2cc(C)n(CC(=O)NCC3CCC(C(=O)NC(Cc4cnc5ccccc5c4)C(=O)NCCCCC(NC(=O)NC(CCC(=O)O)C(=O)O)C(=O)O)CC3)c(=O)c2[O-])CCNC(=O)c2cc(C)n(CC(=O)NCC3CCC(C(=O)NC(Cc4cnc5ccccc5c4)C(=O)NCCCCC(NC(=O)NC(CCC(=O)O)C(=O)O)C(=O)O)CC3)c(=O)c2[O-])c([O-])c(=O)n1CC(=O)O.[227Th+4] (stereo not shown) [Example 22-C dimer-227Th] ... 2.63

So, O=C([O-])CN1CCN(CC(=O)[O-])CCN(CC(=O)NCc2ccc(C(=O)N[C@@H](Cc3ccc4ccccc4n3)C(=O)NCCCC[C@H](NC(=O)N[C@@H](CCC(=O)O)C(=O)O)C(=O)O)nc2)CCN(CC(=O)[O-])CC1.[227Th+4] [Example 34-B-227Th] ? Its Th-227 in salivary glands was 3.14

* * *

Parameter Th-227 in small intestine: see the listing below.
- Procedure summary: Biodistribution study in LNCaP tumor-bearing mice (Th227 counted in organs)
- Format: in vivo, SCID mice
- Condition label: 1 hr; 1500 kBq/kg
Report as a plain number; the unit % ID Th-227/g organ is understood.

Below are worked cases with known answers.
Cc1cc(C(=O)NCCN(CCCN(CCNC(=O)c2cc(C)n(CC(=O)O)c(=O)c2[O-])CCNC(=O)c2cc(C)n(CC(=O)NCC3CCC(C(=O)NC(Cc4cnc5ccccc5c4)C(=O)NCCCCC(NC(=O)NC(CCC(=O)O)C(=O)O)C(=O)O)CC3)c(=O)c2[O-])CCNC(=O)c2cc(C)n(CC(=O)NCC3CCC(C(=O)NC(Cc4cnc5ccccc5c4)C(=O)NCCCCC(NC(=O)NC(CCC(=O)O)C(=O)O)C(=O)O)CC3)c(=O)c2[O-])c([O-])c(=O)n1CC(=O)O.[227Th+4] (stereo not shown) [Example 22-C dimer-227Th] ... 0.38
O=C([O-])CN1CCN(CC(=O)[O-])CCN(CC(=O)NCC2CCC(C(=O)NC(Cc3ccc4ccccc4c3)C(=O)NCCCCC(NC(=O)NC(CCC(=O)O)C(=O)O)C(=O)O)CC2)CCN(CC(=O)[O-])CC1.[227Th+4] (stereo not shown) [Example 1-B-227Th] ... 0.84
O=C([O-])CN1CCN(CC(=O)[O-])CCN(CC(=O)NCC2CCC(C(=O)NC(Cc3ccc4ccccc4c3)C(=O)NCCCCC(NC(=O)NC(CCC(=O)O)C(=O)O)C(=O)O)CC2)CCN(CC(=O)[O-])CC1.[227Th+4] [Example 1-B-D-227Th] ... 0.26

GET /value?item= O=C([O-])CN1CCN(CC(=O)[O-])CCN(CC(=O)NCc2ccc(C(=O)N[C@@H](Cc3ccc4ccccc4n3)C(=O)NCCCC[C@H](NC(=O)N[C@@H](CCC(=O)O)C(=O)O)C(=O)O)nc2)CCN(CC(=O)[O-])CC1.[227Th+4] [Example 34-B-227Th] &field=Th-227 in small intestine returns 0.64
